- MEASUREMENT DESCRIPTION: Determination of bioavailability / pharmacokinetics in rats
- Assay type: in vivo
- EXPERIMENTAL SETUP: male, Wistar Ola, plasma; rat, PO 10 mg/kg of the free acid itself, saline
RECORDED METRIC: AUC
Please report the result as a number followed by the unit.

Reported AUC of "Cl.Nc1nccc2cc(CNC(=O)[C@@H]3CCCN3C(=O)[C@H](NCC(=O)O)C(c3ccccc3)c3ccccc3)ccc12" : 119 ng·h/mL

---

Listing of entries alongside the reported clearance.
- MEASUREMENT DESCRIPTION: Determination of bioavailability / pharmacokinetics in rats
- Assay type: in vivo
- EXPERIMENTAL SETUP: male, Wistar Ola, plasma; rat, IV 2 mg/kg, saline
Where a name gives a salt, the structure may show the parent alone.
Response body: numeric value in mL/min/kg, unit text excluded.

{"columns": ["COMPOUND", "OUTPUT UNIT", "clearance"],
 "data": [
  ["Nc1nccc2cc(CNC(=O)[C@@H]3CCCN3C(=O)[C@@H](Cc3ccccc3)NCC(=O)O)ccc12 [Compound 2B, trifluoroacetate]", "mL/min/kg", 54]
]}

For the next question, use this compound.
clearance in this record for COc1ccc(C[C@@H](NCC(=O)O)C(=O)N2CCC[C@H]2C(=O)NCc2ccc3c(N)nccc3c2)cc1 [Compound 3B, trifluoroacetate] : 34
